Measured EC50, listed per entry for reference.
Test system: human EPO production, Hep3B cells
Assay: Human EPO production activity in Hep3B cells (EPO-ELISA of culture supernatant)
Format: cell-based
Assay Conditions: Homo sapiens, 24 hr incubation, values consisting solely of numbers, read-out: EC50 (μM) in vitro, human EPO production activity
Structures can show the parent of a compound that is named as a salt.
The response must be a number in µM with no trailing unit.

Req: What value of EC50 has been reported for the following compound? O=C(O)CNC(=O)c1c(O)cc(CCCc2ccccc2)n2ncnc12 [Example 29]
Resp: 11.3

Req: What value of EC50 has been reported for the following compound? O=C(O)CNC(=O)c1c(O)cc(CCC2CCC2)n2ncnc12 [Example 54, acetic acid hydrochloride]
Resp: 4.5

Req: What value of EC50 has been reported for the following compound? O=C(O)CNC(=O)c1c(O)cc(-c2cc(F)c(F)c(F)c2)n2ncnc12 [Example 49, hydrochloride]
Resp: 11.7

Req: What value of EC50 has been reported for the following compound? O=C(O)CNC(=O)c1c(O)cc(CC2CCC2)n2ncnc12 [Example 53, acetic acid hydrochloride]
Resp: 8.9
